experimentalSystem: human OR11A1 (Homo sapiens)
Sequence (Q9GZK7 whole entry): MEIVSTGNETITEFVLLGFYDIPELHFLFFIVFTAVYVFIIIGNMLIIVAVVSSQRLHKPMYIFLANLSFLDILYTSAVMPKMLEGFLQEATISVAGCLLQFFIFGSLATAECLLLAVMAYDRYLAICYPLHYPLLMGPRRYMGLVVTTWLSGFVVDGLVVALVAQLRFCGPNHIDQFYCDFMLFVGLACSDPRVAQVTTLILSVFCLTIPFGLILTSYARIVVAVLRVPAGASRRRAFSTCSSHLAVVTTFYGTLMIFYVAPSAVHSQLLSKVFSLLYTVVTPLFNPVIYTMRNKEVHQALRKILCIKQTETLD
protocolSummary: cAMP luminescence
Type: cell-based
reportedConditions: each KFO 300 μmol/L, triplicate, normalized to response of OR11A1 to geosmin
measurementKind: KFO screening signal on human OR11A1 relative to 3σ-threshold

molecule	experimentalSystem	value
CC12CCC(CC1)C(C)(C)O2	human OR11A1 (Homo sapiens)	reached the 3σ-threshold
CCCCC(=O)OCC [ethyl pentanoate]	human OR11A1 (Homo sapiens)	above the 3σ-threshold
C=Cc1ccc(O)cc1	human OR11A1 (Homo sapiens)	above the 3σ-threshold
CSCCCO	human OR11A1 (Homo sapiens)	reached the 3σ-threshold
